# assay info: Plasma protein binding in rat
# Type: ADME, cell-free
# condition summary: read-out: PPB
reported property: fraction unbound

Value of measured fraction unbound for the entry `CN(C)S(=O)(=O)NC(=O)CCCc1c(-c2ccc(F)cc2)[nH]c2ccc(C#N)cc12` : < 0.01

###

# assay info: Stability in rat liver microsomes after 10 mins
# Format: ADME, Microsome
# condition summary: read-out: Stability
reported property: remaining at 10 min (%)
One number for each entry, in %.

Value of measured remaining at 10 min for the entry `CN(C)S(=O)(=O)NC(=O)CCCc1c(-c2ccc(F)cc2)[nH]c2ccc(C#N)cc12` : 100

###

# study system: C-X-C chemokine receptor type 2 (Homo sapiens, UniProt P25025)
# Sequence (P25025 whole entry): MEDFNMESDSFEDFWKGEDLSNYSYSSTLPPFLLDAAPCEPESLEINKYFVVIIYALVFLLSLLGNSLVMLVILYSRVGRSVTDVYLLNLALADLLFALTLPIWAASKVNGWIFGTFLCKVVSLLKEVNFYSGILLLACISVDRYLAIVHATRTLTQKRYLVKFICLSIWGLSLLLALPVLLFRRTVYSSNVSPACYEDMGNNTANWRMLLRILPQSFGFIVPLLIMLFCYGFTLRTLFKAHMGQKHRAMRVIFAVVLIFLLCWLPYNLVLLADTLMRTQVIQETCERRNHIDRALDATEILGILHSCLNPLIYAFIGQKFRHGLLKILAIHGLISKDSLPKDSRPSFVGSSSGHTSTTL
# assay info: Antagonist activity at human cloned CXCR2 by calcium flux FLIPR assay
# Format: functional
reported property: IC50 (nM)
One number for each entry, in nM.

Some molecules with known IC50 results, for comparison:
* CS(=O)(=O)NC(=O)NCCc1c(-c2ccc(F)cc2)[nH]c2ccc(Br)cc12 | 90
* CN(C)S(=O)(=O)NC(=O)CCCc1c(-c2ccc(F)cc2)[nH]c2ccc(C#N)cc12 | 5
* CNS(=O)(=O)NC(=O)CCCc1c(-c2ccc(F)cc2)[nH]c2ccc(C#N)cc12 | 14
* CS(=O)(=O)NC(=O)CCCc1c(-c2ccc(F)cc2)[nH]c2ccc(C#N)cc12 | 32
* N#Cc1ccc2[nH]c(-c3ccc(F)cc3)c(CCCC(=O)NS(=O)(=O)C(F)(F)F)c2c1 | 70

# evaluate next
Value of measured IC50 for the entry `O=C(NCCc1c(-c2ccc(F)cc2)[nH]c2ccc(Br)cc12)NS(=O)(=O)c1ccccc1` : 4

###

# study system: C-X-C chemokine receptor type 2 (Homo sapiens, UniProt P25025)
# assay info: Displacement of europium labeled-human IL8 from human cloned CXCR2 expressed in Sf9 membrane with Galphai3-beta-1-gamma-2 by DELFIA binding assay
pIC50: −log10 of the molar value.
Response key: Met means pIC50 >= 7; Not met means pIC50 < 7.

- N#Cc1ccc2[nH]c(-c3ccc(F)cc3)c(CCCC(=O)NS(=O)(=O)c3ccccc3)c2c1: Not met
- CS(=O)(=O)NC(=O)NCCc1c(-c2ccc(F)cc2)[nH]c2ccc(Br)cc12: Not met
- CCCS(=O)(=O)NC(=O)CCCc1c(-c2ccc(F)cc2)[nH]c2ccc(C#N)cc12: Not met
- CS(=O)(=O)NC(=O)NCCc1c(-c2ccc(F)cc2)[nH]c2ccc(C#N)cc12: Not met
- CCCCNS(=O)(=O)NC(=O)CCCc1c(-c2ccc(F)cc2)[nH]c2ccc(C#N)cc12: Not met
- COCCNS(=O)(=O)NC(=O)CCCc1c(-c2ccc(F)cc2)[nH]c2ccc(C#N)cc12: Not met
- CC(C)S(=O)(=O)NC(=O)CCCc1c(-c2ccc(F)cc2)[nH]c2ccc(C#N)cc12: Not met
- N#Cc1ccc2[nH]c(-c3ccc(F)cc3)c(CCCC(=O)NS(=O)(=O)Cc3ccccc3)c2c1: Not met
- CCN(CC)S(=O)(=O)NC(=O)CCCc1c(-c2ccc(F)cc2)[nH]c2ccc(C#N)cc12: Not met
- CN(C)S(=O)(=O)NC(=O)CCCc1c(-c2ccc(F)cc2)[nH]c2ccc(C#N)cc12: Met

Quick check: does `N#Cc1ccc2[nH]c(-c3ccc(F)cc3)c(CCNC(=O)NS(=O)(=O)c3ccccc3Cl)c2c1` have pIC50 greater than or equal to 7? Not met

Quick check: does `CN(C(=O)CCCc1c(-c2ccc(F)cc2)[nH]c2ccc(C#N)cc12)S(C)(=O)=O` have pIC50 greater than or equal to 7? Not met

Quick check: does `COc1cc2[nH]c(-c3ccc(F)cc3)c(CCCC(=O)NS(=O)(=O)N(C)C)c2cc1C#N` have pIC50 greater than or equal to 7? Met
